Just for reference, patent US11230535B2 is where these values come from.

- testedOn: human wild-type CFTR (Homo sapiens)
- experimentDescription: Cell-based plate reader (YFP iodide influx) assay of CFTR function
- Design: expressed in transfected cells; host or cells: Fischer rat thyroid (FRT) cells stably co-expressing YFP-H148Q
- particulars: commercial analogs; FRT cells with YFP and wildtype CFTR, 125 nM forskolin
Reported % Activation values for the following molecules.

| chemicalString | unitsSymbol | % Activation |
| --- | --- | --- |
| CCN(CC)c1nc(Nc2ccccc2)nc(OC(C(F)(F)F)C(F)(F)F)n1 | % | 111 |
| CN(C)c1nc(OC(C(F)(F)F)C(F)(F)F)nc(N(c2ccccc2)c2ccccc2)n1 | % | 42 |
| COc1nc(Nc2ccc(Cl)cc2)nc(NC2CCCCC2)n1 | % | 55 |
| Cc1ccccc1Nc1nc(OC(C(F)(F)F)C(F)(F)F)nc(OC(C(F)(F)F)C(F)(F)F)n1 | % | 19 |
| CN(C)c1nc(Nc2ccc(OC(F)(F)Cl)cc2)nc(OCC(F)(F)F)n1 | % | 32 |
| FC(F)(F)COc1nc(Nc2ccccc2)nc(OCC(F)(F)F)n1 | % | 60 |
| O=[N+]([O-])c1ccccc1Nc1nc(OCC(F)(F)F)nc(OCC(F)(F)F)n1 | % | 29 |
| CCOc1nc(Nc2ccccc2)nc(NC2CCCC2)n1 | % | 57 |
| COc1nc(Nc2ccc(OC)c(Cl)c2)nc(OC)n1 | % | 23 |

----------
- testedOn: UniProt:P13569
- experimentDescription: Cell-based plate reader (YFP iodide influx) assay of CFTR function
- Set-up: expressed in transfected cells; host or cells: Fischer rat thyroid (FRT) cells stably co-expressing YFP-H148Q
pEC50: −log10 of the molar value.
quantityName: pEC50

| chemicalString | observedValue |
| --- | --- |
| CCN(CC)c1nc(Nc2ccc3ncsc3c2)nc(OC(C(F)(F)F)C(F)(F)F)n1 | ~7.30 |

----------
- testedOn: UniProtKB P13569
- experimentDescription: Cell-based plate reader (YFP iodide influx) assay of CFTR function
- Set-up: expressed in transfected cells; host or cells: Fischer rat thyroid (FRT) cells stably co-expressing YFP-H148Q
- particulars: commercial analogs; FRT cells with YFP and wildtype CFTR, 125 nM forskolin
- Protocol: The initiate rate of I^− influx was computed by determined using exponential regression. All compound plates contained negative controls (DMSO vehicle) and positive controls (20 μM forskolin). High-throughput screening. […] The initiate rate of I^− influx was computed by determined using exponential regression. All compound plates contained negative controls (DMSO vehicle) and positive controls ([…] forskolin). Platereader assays of chloride channel function. CFTR activity was assayed as described. […]
Reported % Activation values for the following molecules.

| chemicalString | % Activation |
| --- | --- |
| Cc1ccccc1Nc1nc(OCC(F)(F)F)nc(OCC(F)(F)F)n1 | 28% |
| CCOc1nc(Nc2ccc(Cl)cc2)nc(NC2CCCCC2)n1 | 53% |
| Cc1ccc(Nc2nc(OC(C(F)(F)F)C(F)(F)F)nc(OC(C(F)(F)F)C(F)(F)F)n2)cc1 | 20% |
| CC(C)Nc1nc(Nc2ccc([N+](=O)[O-])cc2)nc(OC(C(F)(F)F)C(F)(F)F)n1 | 20% |
| COc1nc(Nc2ccc(Cl)cc2)nc(NC(C)(C)C)n1 | 53% |
| CN1CCN(c2nc(Nc3ccc(OC(F)(F)Cl)cc3)nc(OCC(F)(F)F)n2)CC1 | 25% |
| COc1nc(Nc2ccc(O)cc2)nc(OC(C(F)(F)F)C(F)(F)F)n1 | 61% |
| FC(F)(F)C(Oc1nc(Nc2cccnc2)nc(OC(C(F)(F)F)C(F)(F)F)n1)C(F)(F)F | 16% |
| Cc1cc(I)ccc1Nc1nc(NCCN2CCOCC2)nc(OCC(F)(F)F)n1 | 43% |

----------
- testedOn: UniProt P13569
- experimentDescription: Cell-based plate reader (YFP iodide influx) assay of CFTR function
- Design: expressed in transfected cells; host or cells: Fischer rat thyroid (FRT) cells stably co-expressing YFP-H148Q
- particulars: commercial analogs; FRT cells with YFP and wildtype CFTR, 125 nM forskolin
Reported % Activation values for the following compounds.
quantityName: % Activation (%)

| compound | testedOn | quantityName | observedValue |
| --- | --- | --- | --- |
| CN(C)c1nc(Nc2ccc(Cl)cc2)nc(OCCNC(=O)c2ccc(Cl)cc2)n1 | UniProt P13569 | % Activation | 47 |
| CC(=O)c1ccc(Nc2nc(OC(C(F)(F)F)C(F)(F)F)nc(OC(C(F)(F)F)C(F)(F)F)n2)cc1 | UniProt P13569 | % Activation | 19 |
| CCCCCCNc1nc(Nc2ccc([N+](=O)[O-])cc2)nc(OCC)n1 | UniProt P13569 | % Activation | 33 |
| C=CCNc1nc(OC(C(F)(F)F)C(F)(F)F)nc(N(c2ccccc2)c2ccccc2)n1 | UniProt P13569 | % Activation | 37 |
| O=[N+]([O-])c1cccc(Nc2nc(OC(C(F)(F)F)C(F)(F)F)nc(OC(C(F)(F)F)C(F)(F)F)n2)c1 | UniProt P13569 | % Activation | 18 |
| CCOc1nc(Nc2ccc([N+](=O)[O-])cc2)nc(NC2CCCCC2)n1 | UniProt P13569 | % Activation | 45 |
| COc1nc(Nc2ccccc2)nc(Nc2ccccc2)n1 | UniProt P13569 | % Activation | 32 |
| C=CCNc1nc(Nc2ccc(OC(F)(F)Cl)cc2)nc(OCC(F)(F)F)n1 [K077] | UniProt P13569 | % Activation | 29 |
| CCOc1nc(Nc2ccc(-c3nc4ccccc4o3)cc2)nc(N2CCOCC2)n1 | UniProt P13569 | % Activation | 87 |
| CNc1nc(Nc2ccc(C(C)=O)cc2)nc(OC(C(F)(F)F)C(F)(F)F)n1 | UniProt P13569 | % Activation | 32 |
| FC(F)(F)COc1nc(Nc2ccc(OC(F)(F)Cl)cc2)nc(OCC(F)(F)F)n1 | UniProt P13569 | % Activation | 16 |
| C=CCNc1nc(Nc2ccc(OC(F)(F)Cl)cc2)nc(OCC(F)(F)F)n1 [K076] | UniProt P13569 | % Activation | 46 |
| Fc1ccc(Nc2nc(OC(C(F)(F)F)C(F)(F)F)nc(N3CCCCC3)n2)cc1 | UniProt P13569 | % Activation | 49 |
| C=CCNc1nc(Nc2ccc(I)cc2)nc(OC)n1 | UniProt P13569 | % Activation | 35 |
| CNc1nc(Nc2ccc(OC(F)(F)Cl)cc2)nc(OCC(F)(F)F)n1 | UniProt P13569 | % Activation | 64 |
| CCC(C)Nc1nc(Nc2ccc(OC(F)(F)Cl)cc2)nc(OCC(F)(F)F)n1 (centres unmarked) | UniProt P13569 | % Activation | 22 |
| COc1nc(NCCO)nc(Nc2ccc([N+](=O)[O-])cc2)n1 | UniProt P13569 | % Activation | 17 |
| C=CCNc1nc(Nc2ccc(I)cc2)nc(OCC)n1 | UniProt P13569 | % Activation | 55 |
| CCOc1nc(NCCO)nc(Nc2ccc([N+](=O)[O-])cc2)n1 | UniProt P13569 | % Activation | 28 |
| COc1nc(Nc2ccc(I)cc2)nc(OC2CCCCC2)n1 | UniProt P13569 | % Activation | 15 |

----------
- testedOn: human wild-type CFTR (Homo sapiens, UniProt P13569)
- Sequence (P13569 whole entry): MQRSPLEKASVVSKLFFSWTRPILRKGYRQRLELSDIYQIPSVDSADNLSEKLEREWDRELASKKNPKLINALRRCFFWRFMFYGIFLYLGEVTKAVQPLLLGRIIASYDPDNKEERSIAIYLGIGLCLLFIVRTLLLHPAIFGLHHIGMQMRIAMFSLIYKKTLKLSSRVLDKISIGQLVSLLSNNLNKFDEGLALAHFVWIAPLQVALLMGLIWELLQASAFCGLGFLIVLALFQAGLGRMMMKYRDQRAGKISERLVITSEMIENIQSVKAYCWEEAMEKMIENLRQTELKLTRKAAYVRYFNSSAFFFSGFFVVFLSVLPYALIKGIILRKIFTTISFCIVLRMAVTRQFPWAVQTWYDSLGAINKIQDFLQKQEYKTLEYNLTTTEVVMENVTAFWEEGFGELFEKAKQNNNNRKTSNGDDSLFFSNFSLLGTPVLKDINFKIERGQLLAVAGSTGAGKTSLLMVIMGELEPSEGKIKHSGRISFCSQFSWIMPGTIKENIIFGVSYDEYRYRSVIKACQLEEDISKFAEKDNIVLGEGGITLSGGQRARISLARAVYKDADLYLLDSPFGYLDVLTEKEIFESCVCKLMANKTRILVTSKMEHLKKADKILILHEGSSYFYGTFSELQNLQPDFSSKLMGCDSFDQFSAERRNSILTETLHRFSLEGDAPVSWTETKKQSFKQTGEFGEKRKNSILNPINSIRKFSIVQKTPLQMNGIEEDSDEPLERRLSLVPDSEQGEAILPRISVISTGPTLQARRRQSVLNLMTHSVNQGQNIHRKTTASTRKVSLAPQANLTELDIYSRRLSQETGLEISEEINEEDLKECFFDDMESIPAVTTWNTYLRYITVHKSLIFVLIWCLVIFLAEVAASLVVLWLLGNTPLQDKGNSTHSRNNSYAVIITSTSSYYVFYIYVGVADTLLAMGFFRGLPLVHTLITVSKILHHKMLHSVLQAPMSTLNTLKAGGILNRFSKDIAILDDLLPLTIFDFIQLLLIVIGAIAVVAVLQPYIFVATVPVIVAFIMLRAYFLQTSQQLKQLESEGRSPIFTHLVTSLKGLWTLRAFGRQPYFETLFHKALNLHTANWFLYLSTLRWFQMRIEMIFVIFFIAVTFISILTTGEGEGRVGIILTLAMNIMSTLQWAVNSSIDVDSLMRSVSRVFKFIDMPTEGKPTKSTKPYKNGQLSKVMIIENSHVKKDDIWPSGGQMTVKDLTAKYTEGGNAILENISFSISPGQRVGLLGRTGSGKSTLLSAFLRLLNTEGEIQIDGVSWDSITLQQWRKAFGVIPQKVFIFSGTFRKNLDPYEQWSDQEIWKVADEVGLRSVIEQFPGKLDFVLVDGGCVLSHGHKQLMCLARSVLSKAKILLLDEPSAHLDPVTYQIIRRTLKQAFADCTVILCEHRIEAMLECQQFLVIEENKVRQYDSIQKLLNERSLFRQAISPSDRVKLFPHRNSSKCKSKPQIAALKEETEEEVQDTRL
- experimentDescription: Cell-based plate reader (YFP iodide influx) assay of CFTR function
- Parameters: expressed in transfected cells; host or cells: Fischer rat thyroid (FRT) cells stably co-expressing YFP-H148Q
- particulars: commercial analogs; FRT cells with YFP and wildtype CFTR, 125 nM forskolin
Binarize % Activation at 40%; below is 1, at or above is -1.

| compound | testedOn | categoryLabel |
| --- | --- | --- |
| O=[N+]([O-])c1ccc(Nc2nc(OC(C(F)(F)F)C(F)(F)F)nc(OC(C(F)(F)F)C(F)(F)F)n2)cc1 [K015] | human wild-type CFTR (Homo sapiens, UniProt P13569) | 1 |
| CCC(C)Nc1nc(Nc2ccc([N+](=O)[O-])cc2)nc(OC(C(F)(F)F)C(F)(F)F)n1 (stereo not drawn) [K056] | human wild-type CFTR (Homo sapiens, UniProt P13569) | 1 |
| C=CCNc1nc(Nc2ccc(-c3nc4ccccc4o3)cc2)nc(OCC)n1 [K067] | human wild-type CFTR (Homo sapiens, UniProt P13569) | -1 |
| CCOc1nc(NCCN2CCOCC2)nc(Nc2ccc(I)cc2)n1 [K045] | human wild-type CFTR (Homo sapiens, UniProt P13569) | 1 |
